target: BTK enzyme (recombinant full-length BTK, hBTK) (Homo sapiens, UniProt Q06187); construct: recombinant protein from baculovirus-transfected Sf9 cells: full-length BTK, 6HIS-tag cleaved; 6HIS (cleaved yes); made in house; host or cells: baculovirus-transfected Sf9 cells; test: Btk enzyme activity assay, LANCE TR-FRET; type: biochemical; details: 50 pM hBTK, 2 μM biotin-A5-peptide, 25 μM ATP; 60 minute compound & enzyme incubation; 120 minutes reaction; read-out: BTK binding potency IC50
Sequence (Q06187 whole entry): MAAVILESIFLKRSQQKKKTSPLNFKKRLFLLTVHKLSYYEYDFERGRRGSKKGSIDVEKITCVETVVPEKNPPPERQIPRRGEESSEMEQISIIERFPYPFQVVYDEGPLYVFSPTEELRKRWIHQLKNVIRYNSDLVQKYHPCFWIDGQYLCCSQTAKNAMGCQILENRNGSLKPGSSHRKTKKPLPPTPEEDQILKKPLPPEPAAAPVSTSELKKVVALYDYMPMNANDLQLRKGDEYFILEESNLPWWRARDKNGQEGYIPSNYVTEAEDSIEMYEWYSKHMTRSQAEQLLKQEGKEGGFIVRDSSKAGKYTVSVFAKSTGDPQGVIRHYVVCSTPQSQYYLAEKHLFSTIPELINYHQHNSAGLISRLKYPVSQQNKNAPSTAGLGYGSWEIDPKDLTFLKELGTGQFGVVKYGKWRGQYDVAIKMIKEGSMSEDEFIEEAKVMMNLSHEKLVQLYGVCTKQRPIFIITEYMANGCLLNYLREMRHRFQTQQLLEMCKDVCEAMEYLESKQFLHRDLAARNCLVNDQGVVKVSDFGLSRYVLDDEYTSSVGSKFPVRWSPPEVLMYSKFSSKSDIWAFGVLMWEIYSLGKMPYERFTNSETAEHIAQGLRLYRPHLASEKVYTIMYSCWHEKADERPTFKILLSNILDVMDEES
Answer each item with its documented log10(IC50).
Reminder: these figures are log10 of reported IC50, in nM before transformation.

Query: Could you tell me which log10(IC50) is on file for `CC(C)(C)OC(=O)N1CCC2(C1)CN(c1ncc(C(N)=O)c3[nH]c4ccccc4c13)C2` ?
Result: 2.64

Query: Could you tell me which log10(IC50) is on file for `NC(=O)c1cnc(N2CCC[C@@]3(CCCN(c4ccc(F)cc4)C3=O)C2)c2c1[nH]c1ccc(F)cc12` ?
Result: 2.93

Query: Could you tell me which log10(IC50) is on file for CN1CC[C@@]2(CCCN(c3ncc(C(N)=O)c4[nH]c5cc(-c6ccc(C(O)C(F)(F)F)cc6)ccc5c34)C2)C1=O (stereo partly shown) ?
Result: 1.78

Query: Could you tell me which log10(IC50) is on file for NC(=O)c1cnc(N2CCC[C@]3(C2)C(=O)NC[C@@H]3c2ccccc2)c2c1[nH]c1ccccc12 (single isomer, unassigned) ?
Result: 2.83

Query: Could you tell me which log10(IC50) is on file for `Cc1noc(C)c1-c1ccc2c(c1)[nH]c1c(C(N)=O)cnc(N3CCC[C@@]4(CCN(C)C4=O)C3)c12` ?
Result: 1.10

Query: Could you tell me which log10(IC50) is on file for CNC(=O)N1CCC(c2ccc3c(c2)[nH]c2c(C(N)=O)cnc(N4CCCC5(CCNC5=O)C4)c23)CC1 (stereo not shown) ?
Result: 0.15

Query: Could you tell me which log10(IC50) is on file for CC(C)(C)c1ccc(C(=O)N2CCCC3(CCCCN3c3ncc(C(N)=O)c4[nH]c5ccccc5c34)C2)cc1 (stereo not shown) ?
Result: 2.73

----------
target: BTK enzyme (recombinant full-length BTK, hBTK) (Homo sapiens); construct: recombinant protein from baculovirus-transfected Sf9 cells: full-length BTK, 6HIS-tag cleaved; 6HIS (cleaved yes); made in house; host or cells: baculovirus-transfected Sf9 cells; test: Btk enzyme activity assay, LANCE TR-FRET; type: biochemical; settings: 50 pM hBTK, 2 μM biotin-A5-peptide, 25 μM ATP; 60 minute compound & enzyme incubation; 120 minutes reaction; read-out: BTK binding potency IC50
MEASUREMENT_LABEL: IC50
Answer with the number, then the unit.

Query: Could you tell me which IC50 is on file for NC(=O)c1cnc(N2CCCC3(CCN(c4ccc(F)cc4)C3=O)C2)c2c1[nH]c1ccccc12 (centres unmarked) [Example 32] ?
Result: 244 nM

Query: Could you tell me which IC50 is on file for CC(C)(C)OC(=O)N1CCC2(CCN(c3ncc(C(N)=O)c4[nH]c5ccccc5c34)CC2)C1 [Example 13] ?
Result: 163 nM

Query: Could you tell me which IC50 is on file for CCN1CCC(c2ccc3[nH]c4c(C(N)=O)cnc(N5CCCC6(CCNC6=O)C5)c4c3c2)CC1 (centres unmarked) [Example 49] ?
Result: 87.3 nM

Query: Could you tell me which IC50 is on file for NC(=O)c1cnc(N2CCC3(CCNCC3)C2)c2c1[nH]c1ccccc12 [Example 15] ?
Result: 37.4 nM

Query: Could you tell me which IC50 is on file for COC(=O)c1ccc2c(c1)[nH]c1c(C(N)=O)cnc(N3CCCC4(CCNC4=O)C3)c12 (centres unmarked) [Example 83] ?
Result: 57.2 nM

Query: Could you tell me which IC50 is on file for NC(=O)c1cnc(N2CCC[C@]3(CCCN(c4ccc(F)cc4)C3=O)C2)c2c1[nH]c1ccc(F)cc12 [Example 7] ?
Result: 34.2 nM

Query: Could you tell me which IC50 is on file for NC(=O)c1cnc(N2CCC[C@@]3(CCNC3=O)C2)c2c1[nH]c1cc(C3CCC(=O)NC3)ccc12 (some centres unmarked) [Example 73] ?
Result: 0.74 nM

Query: Could you tell me which IC50 is on file for CC(=O)N1CC2(CCN(c3ncc(C(N)=O)c4[nH]c5ccccc5c34)CC2)C1 [Example 20] ?
Result: 58.6 nM
